- System: HepG2
- Experimental Details: GSK_TCMDC: Percent inhibition of human HepG2 cell line. Test compounds present at 10uM.
- Assay type: functional
Endpoint: Inhibition (%)
All answers are understood in %, so give the number only.

Molecule | Tested System | Endpoint | Measured
COc1ccc2nccc([C@@H](O)CN3CCC(NCc4nc5cc(F)ccc5o4)CC3)c2c1.O=C(O)C(=O)O | HepG2 | Inhibition | 14
O=C(NCc1ccc(C(=O)NC2CCCCC2)cc1)c1ccc(O)c(-c2ccc(Cl)c(Cl)c2)c1 | HepG2 | Inhibition | 5
COc1ccc(NC(=O)[C@H](CC(C)C)Nc2cc(C)nc(NCCc3ccccc3)n2)cc1.O=C(O)C(F)(F)F | HepG2 | Inhibition | 13

Shifting focus to the molecule that follows.
API: value(readout= Inhibition, system= HepG2, query= Cc1cc(Nc2c(C(N)=O)cnc3cc(-c4ccoc4)ccc23)ccc1N1CCN(C)CC1.Cl )
7

###

- Test system: Plasmodium falciparum
- Experimental Details: GSK_TCMDC: Inhibition of Plasmodium falciparum Dd2 in whole red blood cells, using parasite LDH activity as an index of growth. Test compounds present at 2uM
- Assay type: functional
This listing pairs compounds with measured Inhibition.
All answers are understood in %, so give the number only.

Examples with answers:
Mol Smiles | Tested System | Unit Symbol | Inhibition
O=c1cc(NCCCCNCc2cccc(Cl)c2)[nH]c2ccccc12 | Plasmodium falciparum | % | 41
Cc1cc(Cl)c(S(=O)(=O)N2CCc3ccccc32)cc1OCC(=O)NC1CCCCC1 | Plasmodium falciparum | % | 93

Shifting focus to the compound that follows.
Need Inhibition of N#Cc1cccc(NC(=O)Nc2ccc(-c3ccc(-c4nc5cc(C(F)(F)F)ccc5[nH]4)cc3)cc2)c1 , thanks.
100

###

- Test system: Plasmodium falciparum
- Experimental Details: GSK_TCMDC: Inhibition of Plasmodium falciparum Dd2 in whole red blood cells, using parasite LDH activity as an index of growth. Test compounds present at 2uM
- Format: functional
This listing pairs compounds with measured Inhibition.
All answers are understood in %, so give the number only.

Examples with answers:
Compound | Unit Symbol | Measured
CCN(CC)CCN(Cc1ccc(-c2ccc(C(F)(F)F)cc2)cc1)C(=O)Cn1c(CCc2c(F)cc(F)cc2F)nc(=O)c2ccccc21.O=C(O)C(O)C(O)C(=O)O | % | 26
CC(=O)Oc1c(Cl)c(C)nc(C)c1-c1ccc(Oc2ccc(OC(F)(F)F)cc2)cc1 | % | 98
O=C(NC1CCCCN(Cc2ccccc2O)C1)c1cccc(Cl)c1.O=C(O)C(F)(F)F (configuration not stated) | % | 30

Need Inhibition of O=C(/C=C/c1ccc(Cl)c(Cl)c1)NCCCCCN1CCC(NC(=O)Nc2ccc([N+](=O)[O-])cc2)CC1 , thanks.
2

Need Inhibition of COc1cc2ncnc(Nc3ccc4nc(Cc5ccccc5)[nH]c4c3)c2cc1OC.Cl , thanks.
28

Need Inhibition of CCCCNCc1ccc(-c2nc(CN(Cc3ccc(Cl)c(Cl)c3)C(=O)CN(C)C)cs2)cc1.O=C(O)C(F)(F)F , thanks.
51

###

This listing pairs molecules with measured Inhibition.
- Tested on: Plasmodium falciparum
- Experimental Details: GSK_TCMDC: Inhibition of Plasmodium falciparum 3D7 in whole red blood cells, using parasite LDH activity as an index of growth. Test compounds present at 2uM
- Format: functional
All answers are understood in %, so give the number only.

Molecule | Inhibition (%)
COc1ccc(-c2cccc(NC(=O)c3ccc(Cl)cc3)c2)cc1CN1CCC(O)CC1.O=C(O)C(F)(F)F | 100
CCOc1cc(CNCCCCCCNCc2cc(OCC)c(OCC)c3ccccc23)c2ccccc2c1OCC.CS(=O)(=O)O | 100
N#Cc1ccc(/C=C/C(=O)NCCCCCN2CCN(C(=O)Nc3ccc(Cl)c(C(F)(F)F)c3)CC2)cc1 | 94
CC(C)N(Cc1cnc(N)c(C#N)n1)c1ccc(Cl)c(Cl)c1 | 97
CCCn1c(O)nnc1SCC(=O)Nc1cc(Cl)ccc1Cl | 88
CC1SC(=S)NC1C(=O)O (stereo not given) | 94
CC(C)(C)c1ccc(O)c(CNC2CCCCC2)c1.Cl | 100
Cc1cc(NC(=O)NCCN2CCC(NC(=O)c3ccc(F)cc3)CC2)c2ccccc2n1 | 99
CC1(C)N=C(N)N=C(N)N1OCc1ccc2c(c1)OCO2 | 93

Shifting focus to the molecule that follows.
Need Inhibition of CCc1nn2c(Nc3ccncc3)cc(C)nc2c1-c1ccccc1 , thanks.
100

###

- Test system: HepG2
- Experimental Details: GSK_TCMDC: Percent inhibition of human HepG2 cell line. Test compounds present at 10uM.
- Type: functional
Range-based classes on measured Inhibition: label 0 = under 3%, label 1 = from 3% up to 20%, label 2 = 20% and over

Compound | Group
COc1ccc(-c2nc3ccc(C)nc3nc2-c2ccc(OC)cc2)cc1 | label 1
COc1ccc(C23Oc4cc(OC)cc(OC)c4C2(O)C2(CC3c3ccccc3)SCCCS2)cc1 (configuration not stated) | label 2

Band assignment needed for CCCCCCN1CCCN(Cc2ccc(C(=O)Nc3ccc(CCC)cc3)cc2)CC1.O=C(O)C(F)(F)F please.
label 2

Band assignment needed for Cc1[nH]c(C)c(-c2ccc(-c3ccc(Cl)cc3)cc2)c(=O)c1Cl please.
label 0

Band assignment needed for NS(=O)(=O)c1ccc(Nc2nccc(-c3c(-c4cccc(NC(=O)c5c(F)cccc5F)c4)nn4ccccc34)n2)cc1 please.
label 2

Band assignment needed for CCCCN1CCN(Cc2cccc(NC(=O)c3ccc(Cl)c(Cl)c3)c2)CC1.O=C(O)C(F)(F)F please.
label 2

Band assignment needed for CCCc1cc(Cc2cnc(N)nc2N)cc(CC)c1O.Cl please.
label 2

###

- Tested on: HepG2
- Experimental Details: GSK_TCMDC: Percent inhibition of human HepG2 cell line. Test compounds present at 10uM.
- Assay type: functional
Endpoint: Inhibition (%)
All answers are understood in %, so give the number only.

Compound | Endpoint | Measured
CC(C)N1CCC(N(Cc2ccc(-c3ccc(C(F)(F)F)cc3)cc2)C(=O)Cn2c(CCc3cccc(F)c3F)cc(=O)c3cn(C)nc32)CC1.O=C(O)C(O)C(O)C(=O)O | Inhibition | 100
Cc1noc(C)c1-c1ccc2c(Nc3ccc(C#N)cc3)c(C(N)=O)cnc2c1 | Inhibition | 6
CN1CCC(NCc2cccc(-c3ccc(S(=O)(=O)NCc4ccccc4)cc3)c2)CC1.O=C(O)C(F)(F)F | Inhibition | 61
COC(=O)c1ccc2nc(-c3ccc(/C=C/C(=O)NC4CCN(Cc5ccccc5)CC4)cc3)[nH]c2c1 | Inhibition | 12

Shifting focus to the compound that follows.
Need Inhibition of CCCCCCN(CCCCCC)CC(O)c1c(OC)ccc2ccccc12.Cl (stereo not given) , thanks.
18

###

- System: Plasmodium falciparum
- Experimental Details: GSK_TCMDC: Inhibition of Plasmodium falciparum Dd2 in whole red blood cells, using parasite LDH activity as an index of growth. Test compounds present at 2uM
- Assay type: functional
Assign 1 to entries whose Inhibition meets or exceeds 90%; assign -1 to the rest.

Mol Smiles | Group
CCc1nc2c(cnn2CC)c(NC2CCOCC2)c1CNC(=O)c1ccoc1C | -1

Inhibition >= 90% for C=C[C@]1(C)C[C@@H](OC(=O)CNC[C@@H](O)CN2C[C@H](c3ccnc4ccc(OC)nc34)OC2=O)[C@@]2(C)[C@@H]3C(=O)CC[C@@]3(CC[C@@H]2C)[C@@H](C)[C@@H]1O ?
-1

Inhibition >= 90% for O=C(NCc1cccc(CN2CCOCC2)c1)c1cc(Br)cc(N2CCN(c3ccncc3)CC2)c1.O=C(O)C(F)(F)F ?
-1

Inhibition >= 90% for Cc1nc(C)c(-c2ccc(Oc3cccc(OC(F)(F)F)c3)cc2)c(O)c1Cl ?
1

Inhibition >= 90% for c1ccc(CCNc2ncnc3c2[nH]c2ccccc23)cc1 ?
1

Inhibition >= 90% for CC(C)CNCc1ccc(-c2ccccc2CNC2CCN(Cc3ccccc3)CC2)cc1.O=C(O)C(F)(F)F ?
-1

###

- Tested on: Plasmodium falciparum
- Experimental Details: GSK_TCMDC: Inhibition of Plasmodium falciparum Dd2 in whole red blood cells, using parasite LDH activity as an index of growth. Test compounds present at 2uM
- Type: functional
Endpoint: Inhibition (%)
All answers are understood in %, so give the number only.

Examples with answers:
Compound | Tested System | Endpoint | Measured
CCCN(CCC)CCCN(CCCN(CCC)CCC)c1cc(C)nc(Nc2ccc3cc(Br)ccc3c2)n1.Cl | Plasmodium falciparum | Inhibition | 99
Cc1nc(C)c(-c2ccc(Oc3cccc(OC(F)(F)F)c3)cc2)c(O)c1Br | Plasmodium falciparum | Inhibition | 96
CCC(N)(C#Cc1ccc(-c2c(C)[nH]c(C)c(Br)c2=O)cc1)CC | Plasmodium falciparum | Inhibition | 96
CC(C)CNCc1cccc(-c2cccc(CNCCCN3CCN(C)CC3)c2)c1.O=C(O)C(F)(F)F | Plasmodium falciparum | Inhibition | 7

Need Inhibition of COc1ccc(Nc2ncc(OC)c(Nc3ccccc3C(N)=O)n2)cc1N1CCN(C)CC1.O=CO , thanks.
96

Need Inhibition of CN(CC(=O)Nc1cc(C(F)(F)F)ccc1-n1cncn1)Cc1nc2ccccc2s1 , thanks.
64

Need Inhibition of COc1ccc(CNCc2ccc(-c3ccc(-c4nc5cc(C(F)(F)F)ccc5[nH]4)s3)cc2)cc1.O=C(O)C(F)(F)F , thanks.
98

Need Inhibition of COC(=O)C1=C(C)NC2=C(C(=O)CC(c3ccc(OC)c(OC)c3)C2)C1c1cccc(O)c1 (configuration not stated) , thanks.
69

Need Inhibition of Cc1nc(C(C)Nc2nncc(-c3ccc(Cl)cc3)n2)cs1 (configuration not stated) , thanks.
55

Need Inhibition of CC1CN(Cc2ccccc2)CCN1c1ccc(NC(=O)c2ccc(F)cc2)cc1.O=C(O)C(F)(F)F (configuration not stated) , thanks.
89

Need Inhibition of Nc1nc(N)c2cc(NC(=O)c3ccc(Cl)c(Cl)c3)ccc2n1 , thanks.
83

Need Inhibition of O=C(Nc1cccc(C(F)(F)F)c1)c1cccc(S(=O)(=O)NC2CCN(CC3CCCCC3)C2)c1.O=C(O)C(F)(F)F (configuration not stated) , thanks.
45
